# SYSTEM_TESTED: Muscarinic acetylcholine receptor M2 (Homo sapiens)
# Sequence (P08172 whole entry): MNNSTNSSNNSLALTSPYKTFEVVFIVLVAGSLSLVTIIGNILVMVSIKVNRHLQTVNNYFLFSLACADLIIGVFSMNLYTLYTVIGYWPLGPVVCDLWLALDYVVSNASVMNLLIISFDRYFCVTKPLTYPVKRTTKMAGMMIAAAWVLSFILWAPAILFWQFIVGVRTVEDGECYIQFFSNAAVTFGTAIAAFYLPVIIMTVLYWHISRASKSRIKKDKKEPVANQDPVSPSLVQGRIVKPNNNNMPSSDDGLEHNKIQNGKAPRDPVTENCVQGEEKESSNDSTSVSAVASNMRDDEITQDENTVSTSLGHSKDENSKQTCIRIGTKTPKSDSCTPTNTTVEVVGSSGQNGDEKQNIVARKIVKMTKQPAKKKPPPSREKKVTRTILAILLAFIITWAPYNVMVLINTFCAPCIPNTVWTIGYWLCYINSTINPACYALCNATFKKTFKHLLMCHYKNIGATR
# TEST_PROTOCOL: Agonist activity at muscarinic M2 receptor
pEC50: −log10 of the molar value.
MEASURE: pEC50

O=c1[nH]c2cc(Br)ccc2n1C1CCN(C2CCN(S(=O)(=O)c3ccccc3)CC2)CC1 ... < 4.52
O=C(Nc1cccc(SC(F)(F)F)c1)N1CCC(N2CCC(n3c(=O)[nH]c4c(F)cccc43)CC2)CC1 ... < 4.52
O=C(Nc1cccc(SC(F)(F)F)c1)N1CCC(N2CCC(n3c(=O)[nH]c4ccc(F)cc43)CC2)CC1 ... < 4.52
O=c1[nH]c2cc(F)ccc2n1C1CCN(C2CCN(S(=O)(=O)c3ccccc3)CC2)CC1 ... < 4.52
NC(=O)OCCN1CCC(N2CCC(n3c(=O)[nH]c4ccccc43)CC2)CC1 ... 7.92
O=C(Nc1cccc(SC(F)(F)F)c1)N1CCC(N2CCC(n3c(=O)[nH]c4cc(Cl)ccc43)CC2)CC1 ... < 4.52
O=c1[nH]c2cc(Cl)ccc2n1C1CCN(C2CCN(S(=O)(=O)c3ccccc3)CC2)CC1 ... < 4.52
O=C(Nc1cccc(SC(F)(F)F)c1)N1CCC(N2CCC(n3c(=O)[nH]c4ccccc43)CC2)CC1 ... < 4.52
O=c1[nH]c2ccc(F)cc2n1C1CCN(C2CCN(S(=O)(=O)c3ccccc3)CC2)CC1 ... < 4.52
O=c1[nH]c2c(F)cccc2n1C1CCN(C2CCN(S(=O)(=O)c3ccccc3)CC2)CC1 ... < 4.52

----------
Below, each entry is listed with its recorded EC50.
# SYSTEM_TESTED: Muscarinic acetylcholine receptor M5 (Homo sapiens, UniProt P08912)
# Sequence (P08912 whole entry): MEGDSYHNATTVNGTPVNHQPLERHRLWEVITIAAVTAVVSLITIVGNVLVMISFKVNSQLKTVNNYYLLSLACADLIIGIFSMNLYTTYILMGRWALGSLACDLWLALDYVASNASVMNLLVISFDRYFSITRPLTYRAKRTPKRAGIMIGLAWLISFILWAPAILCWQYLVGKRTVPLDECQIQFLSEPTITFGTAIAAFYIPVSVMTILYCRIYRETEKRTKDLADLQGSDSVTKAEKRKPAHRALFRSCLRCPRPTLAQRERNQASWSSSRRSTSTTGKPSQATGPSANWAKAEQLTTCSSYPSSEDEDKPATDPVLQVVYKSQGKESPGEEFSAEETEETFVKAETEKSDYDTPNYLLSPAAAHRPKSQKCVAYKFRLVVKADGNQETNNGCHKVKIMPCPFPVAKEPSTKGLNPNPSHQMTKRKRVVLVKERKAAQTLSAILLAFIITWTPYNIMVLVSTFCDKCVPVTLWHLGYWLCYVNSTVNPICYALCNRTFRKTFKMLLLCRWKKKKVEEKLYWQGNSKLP
# TEST_PROTOCOL: Agonist activity at muscarinic M5 receptor
MEASURE: EC50

NC(=O)OCCN1CCC(N2CCC(n3c(=O)[nH]c4ccccc43)CC2)CC1 ... 0.0343 µM
O=c1[nH]c2ccc(F)cc2n1C1CCN(C2CCN(S(=O)(=O)c3ccccc3)CC2)CC1 ... > 30 µM
O=c1[nH]c2cc(F)ccc2n1C1CCN(C2CCN(S(=O)(=O)c3ccccc3)CC2)CC1 ... > 30 µM

----------
Below, each entry is listed with its recorded EC50.
# SYSTEM_TESTED: Muscarinic acetylcholine receptor M1 (Homo sapiens)
# Sequence (P11229 whole entry): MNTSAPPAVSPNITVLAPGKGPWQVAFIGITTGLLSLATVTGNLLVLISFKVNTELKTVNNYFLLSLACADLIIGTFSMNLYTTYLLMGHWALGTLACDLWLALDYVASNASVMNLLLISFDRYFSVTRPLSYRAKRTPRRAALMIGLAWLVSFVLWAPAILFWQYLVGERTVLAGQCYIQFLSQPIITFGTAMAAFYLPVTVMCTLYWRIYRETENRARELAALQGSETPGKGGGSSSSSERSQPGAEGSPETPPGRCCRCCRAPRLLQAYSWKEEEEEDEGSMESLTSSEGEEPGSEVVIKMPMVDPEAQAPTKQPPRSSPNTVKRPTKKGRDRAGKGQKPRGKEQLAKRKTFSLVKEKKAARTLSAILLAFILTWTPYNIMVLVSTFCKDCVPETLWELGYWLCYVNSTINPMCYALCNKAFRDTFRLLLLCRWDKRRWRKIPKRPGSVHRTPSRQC
# TEST_PROTOCOL: Agonist activity at muscarinic M1 receptor
# Type: functional
MEASURE: EC50 (µM)

O=c1[nH]c2cc(F)ccc2n1C1CCN(C2CCN(S(=O)(=O)c3ccccc3)CC2)CC1 ... 2.3
O=C(c1ccccc1C(F)(F)F)N1CCC(N2CCC(n3c(=O)[nH]c4cc(Cl)ccc43)CC2)CC1 ... 11.1
O=C(Nc1cccc(SC(F)(F)F)c1)N1CCC(N2CCC(n3c(=O)[nH]c4cc(Cl)ccc43)CC2)CC1 ... 3.6
O=C(c1ccccc1C(F)(F)F)N1CCC(N2CCC(n3c(=O)[nH]c4ccccc43)CC2)CC1 ... 0.91
O=C(Nc1cccc(SC(F)(F)F)c1)N1CCC(N2CCC(n3c(=O)[nH]c4ccccc43)CC2)CC1 ... 6.5
Cc1cccc(C(=O)N2CCC(N3CCC(n4c(=O)[nH]c5cc(Cl)ccc54)CC3)CC2)c1 ... 2.11
O=c1[nH]c2ccc(F)cc2n1C1CCN(C2CCN(S(=O)(=O)c3ccccc3)CC2)CC1 ... 3.3
Cc1ccccc1C(=O)N1CCC(N2CCC(n3c(=O)[nH]c4cc(Cl)ccc43)CC2)CC1 ... 2.71
O=C(Nc1cccc(SC(F)(F)F)c1)N1CCC(N2CCC(n3c(=O)[nH]c4ccc(F)cc43)CC2)CC1 ... 9.6
Cc1cccc(C(=O)N2CCC(N3CCC(n4c(=O)[nH]c5ccccc54)CC3)CC2)c1 ... 0.51
O=C(c1cccc(Cl)c1)N1CCC(N2CCC(n3c(=O)[nH]c4cc(Cl)ccc43)CC2)CC1 ... 7.11
O=c1[nH]c2ccccc2n1C1CCN(C2CCN(S(=O)(=O)c3ccccc3)CC2)CC1 ... 1.4
O=c1[nH]c2c(F)cccc2n1C1CCN(C2CCN(S(=O)(=O)c3ccccc3)CC2)CC1 ... 2.6
Cc1ccccc1C(=O)N1CCC(N2CCC(n3c(=O)[nH]c4ccccc43)CC2)CC1 ... 0.88
O=c1[nH]c2cc(Br)ccc2n1C1CCN(C2CCN(S(=O)(=O)c3ccccc3)CC2)CC1 ... 4.4
O=c1[nH]c2cc(Cl)ccc2n1C1CCN(C2CCN(S(=O)(=O)c3ccccc3)CC2)CC1 ... 4.1
O=C(c1cccc(Cl)c1)N1CCC(N2CCC(n3c(=O)[nH]c4ccccc43)CC2)CC1 ... 0.93
